Values compiled from patent US3985747A.

experiment: physchem
Type: physicochemical
assay conditions: aqueous solution, pH 7.1
measure name: degraded at 2 h
Number first, unit second.

Asked: Entry N[C@@H](C(=O)N[C@@H]1C(=O)N2C(C(=O)O)=C(CSc3c[nH]nn3)CS[C@H]12)c1ccc(O)cc1 [BL-S640 Sesquihydrate] : reported degraded at 2 h = ?
Given back: 15.9%

###

experiment: physchem
Format: physicochemical
assay conditions: aqueous solution, pH 7.1
measure name: degraded at 1.5 h (%)
Answers are plain numbers, in %.

Asked: Would you mind telling me what degraded at 1.5 h value was observed for N[C@@H](C(=O)N[C@@H]1C(=O)N2C(C(=O)O)=C(CSc3c[nH]nn3)CS[C@H]12)c1ccc(O)cc1 [BL-S640 Sesquihydrate] ?
Given back: 8.3

###

experiment: in vivo
Design: species or system mice
assay conditions: mouse, im, 10 mg/kg
Structures can show the parent of a compound that is named as a salt.
measure name: concentration at 1 h (ng/mL)
One number for each entry, in ng/mL.

N[C@@H](C(=O)N[C@@H]1C(=O)N2C(C(=O)O)=C(CSc3c[nH]nn3)CS[C@H]12)c1ccc(O)cc1 [BL-S640 Sesquihydrate]; 9400

Here is the next item to consider.
Asked: Given Cc1nnc(SCC2=C(C(=O)O)N3C(=O)[C@@H](NC(=O)Cn4cnnn4)[C@H]3SC2)s1 [Cefazolin, Na salt, sodium cefazolin, reference compound] , state its recorded concentration at 1 h.
Given back: 5700

###

experiment: Loss of bioactivity of the solid on storage at elevated temperatures
Assay type: physicochemical
assay conditions: solid, 56° C., 1 month; read-out: Loss of bioactivity (potency) on storage
measure name: degraded at 730 h

Asked: // lookup degraded at 730 h for N[C@@H](C(=O)N[C@@H]1C(=O)N2C(C(=O)O)=C(CSc3c[nH]nn3)CS[C@H]12)c1ccc(O)cc1 [BL-S640 Sesquihydrate]
Given back: < 6%

###

experiment: in vivo
assay conditions: mouse, blood, po, 100 mg/kg
measure name: concentration at 3.5 h (ng/mL)
Give bare numbers, in ng/mL.

Asked: Value lookup for concentration at 3.5 h; key = N[C@@H](C(=O)N[C@@H]1C(=O)N2C(C(=O)O)=C(CSc3c[nH]nn3)CS[C@H]12)c1ccc(O)cc1 [BL-S640 Sesquihydrate]
Given back: 11900
